The measured values listed here are drawn from patent US8158621B2.

Tested on: cultured human mast cells (CHMC)
Test: CHMC low cell density IgE activation: tryptase assay
Type: cell-based
Conditions: low cell density; read-out: CHMC anti-IgE Tryptase
pIC50: −log10 of the molar value.
Category scheme (pIC50): lower segment (below 6), middle segment (6 to below 7), upper segment (7 or more)

Q: Form: Item = COc1cc(Nc2nc(Nc3ccc4c(c3)C(NC(=O)OC(C)(C)C)CCO4)ncc2F)cc(OC)c1 (racemic) [Compound R950432] ; Class = ?
Result: lower segment

Q: Form: Item = COc1c(C)cc(Nc2ncc(F)c(Nc3ccc4c(n3)NC(=O)C(C)(C)O4)n2)cc1C [Compound R940395] ; Class = ?
Result: lower segment

Q: Form: Item = CC(C)(C)OC(=O)NC1CCOc2ccc(Nc3nc(Nc4ccc(Cl)c(Cl)c4)ncc3F)cc21 (racemic) [Compound R950429] ; Class = ?
Result: lower segment

Q: Form: Item = CC1(C)Oc2ccc(Nc3nc(Nc4ccc5cn[nH]c5c4)ncc3F)cc2NC1=O [Compound R940363] ; Class = ?
Result: upper segment

Q: Form: Item = Cc1ccc(S(=O)(=O)O)cc1.Cc1ccc(S(=O)(=O)O)cc1.OCCCn1ncc2cc(Nc3ncc(F)c(Nc4ccc(Cl)c(Cl)c4)n3)ccc21 [Compound R935451] ; Class = ?
Result: lower segment

###

Target: UniProt P43405
Test: Syk kinase biochemical fluorescence polarization assay
Conditions: isolated Syk kinase, fluorescence polarization, 4 uM ATP
IC50 by entry:
Numbers only here, please. The scale is nM.

Solved cases below.
COc1c(C)cc(Nc2ncc(F)c(Nc3ccc4c(c3)NC(=O)C(C)(C)O4)n2)cc1Cl [Compound R940361]	69
COc1ccc(Nc2ncc(F)c(Nc3ccc4c(c3)NC(=O)C(F)(F)O4)n2)cc1Cl [Compound R926981]	10

Would you kindly look at the next entry?
Q: Record request: IC50 value, item O=C(c1cc2cc(Nc3ncc(F)c(Nc4cccc(O)c4)n3)ccc2o1)N1CCNCC1 [Compound R926500]
Result: 929

###

Tested on: cultured human mast cells (CHMC)
Test: CHMC low cell density IgE activation: tryptase assay
Format: cell-based
Details: low cell density; read-out: CHMC anti-IgE Tryptase
pIC50 by entry:
The value called pIC50 is obtained by taking minus log10 of the concentration in mol/L.

CC(=O)N1CCN(c2ccc(Nc3ncc(F)c(NC4CC4)n3)cc2)CC1 [Compound R945370]	6.28
Cc1cc(Nc2ncc(F)c(Nc3ccc4c(c3)OCCO4)n2)cc(Cl)c1O [Compound R940393]	5.28
C[C@@H]1Oc2ccc(Nc3ncc(F)c(Nc4ccc5c(c4)NC(=O)[C@H](C)O5)n3)cc2NC1=O [Compound R908952]	7.10
CC(C)(C)OC(=O)NC1CCOc2ccc(Nc3nc(Nc4ccc5cn[nH]c5c4)ncc3F)cc21 (racemic) [Compound R950422]	6.32
CC1(C)Oc2ccc(Nc3nc(Nc4cc(Cl)cc(Cl)c4)ncc3F)cc2NC1=O [Compound R927064]	6.67

Would you kindly look at the next entry?
Q: What is its pIC50 for cultured human mast cells (CHMC)? Entry: CNC(=O)COc1cccc(Nc2ncc(F)c(Nc3ccc4c(c3)C(N(C)C(=O)CN(C)C)CCO4)n2)c1 (racemic) [Compound R950419]
Result: 5.49

###

Test system: cultured human mast cells (CHMC)
Assay: CHMC low cell density IgE activation: tryptase assay
Format: cell-based
Conditions: low cell density; read-out: CHMC anti-IgE Tryptase
parameter.measured: pIC50
The value called pIC50 is obtained by taking minus log10 of the concentration in mol/L.

Solved cases below.
O=C(COc1cccc(Nc2ncc(F)c(Nc3ccc(N4CCOCC4)cc3)n2)c1)NC1CCC1 [Compound R945362]	5.80
COc1cc(Nc2ncc(F)c(Nc3ccc4c(c3)C(NC(=O)OC(C)(C)C)CCO4)n2)cc(OC)c1 (racemic) [Compound R950425]	5.94
O=C(COc1cccc(Nc2ncc(F)c(NC3CC3)n2)c1)NC1CC1 [Compound R945363]	6.16

Q: Record request: pIC50 value, item Cn1cc2ccc(Nc3ncc(F)c(Nc4ccc5c(c4)NC(=O)C(C)(C)O5)n3)cc2n1 [Compound R935445]
Result: 6.74

Q: Record request: pIC50 value, item COc1ccc(Nc2nc(Nc3ccc4[nH]ncc4c3)ncc2F)cc1Cl [Compound R935459]
Result: 6.46

Q: Record request: pIC50 value, item COc1ccc(Nc2ncc(F)c(Nc3ccc4c(c3)NC(=O)[C@H](C)O4)n2)cc1Cl [Compound R909321]
Result: 6.79

Q: Record request: pIC50 value, item CNC(=O)COc1cccc(Nc2ncc(F)c(Nc3ccc4c(c3)C(N(C)C(=O)OC(C)(C)C)CCO4)n2)c1 (racemic) [Compound R950415]
Result: 5.28

Q: Record request: pIC50 value, item COc1cc(Nc2ncc(F)c(Nc3ccc4c(c3)NC(=O)C(C)(C)O4)n2)cc(OC)c1 [Compound R927050]
Result: 7.14

Q: Record request: pIC50 value, item CNC(=O)CCn1ncc2ccc(Nc3ncc(F)c(Nc4ccc(OC)c(Cl)c4)n3)cc21 [Compound R935409]
Result: 5.93

Q: Record request: pIC50 value, item O=C1Nc2cc(Nc3nc(Nc4cc(Cl)c(O)c(Cl)c4)ncc3F)ccc2OC1(F)F [Compound R927048]
Result: 7.30

Q: Record request: pIC50 value, item COc1cc(Nc2ncc(F)c(Nc3cccc(N)n3)n2)cc(OC)c1 [Compound R927077]
Result: 6.55

Q: Record request: pIC50 value, item COc1cc(Nc2ncc(F)c(Nc3ccc(N4CCOCC4)c(Cl)c3)n2)cc(OC)c1 [Compound R926986]
Result: 6.46

Q: Record request: pIC50 value, item COc1c(Cl)cc(Nc2ncc(F)c(Nc3ccc4c(c3)NC(=O)[C@H](C)O4)n2)cc1Cl [Compound R908946]
Result: 6.29

###

Tested on: cultured human mast cells (CHMC)
Test: CHMC high cell density IgE activation: histamine
Type: cell-based
pIC50 by entry:
The value called pIC50 is obtained by taking minus log10 of the concentration in mol/L.

Q: What is its pIC50 for cultured human mast cells (CHMC)? Entry: `Cc1cc(Nc2ncc(F)c(Nc3cccc(O)c3)n2)cc(Cl)c1O`
Result: 6.23

Q: What is its pIC50 for cultured human mast cells (CHMC)? Entry: `Nc1cc(Cl)cc(Nc2ncc(F)c(Nc3cc(N)cc(Cl)c3)n2)c1`
Result: 6.20

Q: What is its pIC50 for cultured human mast cells (CHMC)? Entry: `Oc1cccc(Nc2ncc(F)c(Nc3cccc(O)c3)n2)c1`
Result: 6.33

Q: What is its pIC50 for cultured human mast cells (CHMC)? Entry: `Cc1cc(Nc2ncc(F)c(Nc3cc(C)c(O)c(Cl)c3)n2)cc(Cl)c1O`
Result: 5.93

###

Tested on: bone marrow derived mast cells (BMMC)
Assay: BMMC high cell density IgE activation: IL-6
Format: cell-based, mouse
Settings: high cell density; read-out: BMMC anti-IgE IL-6
parameter.measured: pIC50
The value called pIC50 is obtained by taking minus log10 of the concentration in mol/L.

Solved cases below.
Cn1ncc2ccc(Nc3ncc(F)c(Nc4ccc5c(c4)NC(=O)C(C)(C)O5)n3)cc21	8.00
CNC(=O)COc1cccc(Nc2ncc(F)c(Nc3ccc4c(c3)NC(=O)[C@H](C)O4)n2)c1	8.22
COc1ccc(Nc2nc(Nc3ccc4cc[nH]c4c3)ncc2F)cc1Cl	6.60

Q: Record request: pIC50 value, item `Cn1ncc2ccc(Nc3ncc(F)c(Nc4ccc(Cl)c(Cl)c4)n3)cc21`
Result: 6.28

Q: Record request: pIC50 value, item `COc1ccc(Nc2ncc(F)c(Nc3ccc4c(c3)NC(=O)[C@@H](C)O4)n2)cc1Cl`
Result: 7.00

Q: Record request: pIC50 value, item `COc1c(C)cc(Nc2ncc(F)c(Nc3ccc4c(c3)NC(=O)C(C)(C)O4)n2)cc1Cl`
Result: 7.00

Q: Record request: pIC50 value, item `Cc1cccc(C)c1Nc1ncc(F)c(Nc2ccc3c(c2)NC(=O)C(C)(C)O3)n1`
Result: 5.96

###

IC50 by entry:
System: cultured human mast cells (CHMC)
Assay: CHMC low cell density IgE activation: tryptase assay
Format: cell-based
Settings: low cell density; read-out: CHMC anti-IgE Tryptase
Numbers only here, please. The scale is µM.

Solved cases below.
CC1(C)Oc2ccc(Nc3nc(Nc4ccc5cn[nH]c5c4)ncc3F)cc2NC1=O.O=S(=O)(O)c1ccccc1	0.036
CN(C)Cc1cc2cc(Nc3ncc(F)c(Nc4ccc(Cl)c(Cl)c4)n3)ccc2o1	0.68
COc1ccc(Nc2nc(Nc3ccc4c(cnn4CCCO)c3)ncc2F)cc1Cl	0.134

Q: Record request: IC50 value, item `COc1cc(Nc2ncc(F)c(Nc3ccc4c(c3)NC(=O)C(F)(F)O4)n2)cc(C(F)(F)F)c1`
Result: 0.167

Q: Record request: IC50 value, item `OCCCn1ncc2ccc(Nc3ncc(F)c(Nc4ccc(Cl)c(Cl)c4)n3)cc21`
Result: 0.389
